TEST_SYSTEM: Free fatty acid receptor 1 (Homo sapiens)
Sequence (O14842 whole entry): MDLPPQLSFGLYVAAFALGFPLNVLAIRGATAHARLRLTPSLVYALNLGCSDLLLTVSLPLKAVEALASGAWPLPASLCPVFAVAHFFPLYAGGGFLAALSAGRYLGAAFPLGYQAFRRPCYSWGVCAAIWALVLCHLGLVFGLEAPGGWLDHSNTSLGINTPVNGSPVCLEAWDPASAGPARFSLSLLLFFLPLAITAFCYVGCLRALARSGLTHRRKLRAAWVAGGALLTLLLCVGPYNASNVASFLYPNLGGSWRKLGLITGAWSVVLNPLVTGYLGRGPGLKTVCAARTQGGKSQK
EXPERIMENT_DESCRIPTION: Agonist activity at GPR40 expressed in CHO cells after 20 seconds by aequorin bioluminescence assay in presence of 0.1 % human serum
Type: functional, cell-based
PARAMETER_MEASURED: EC50 (nM)

Example entries and their recorded answers appear below.
{"columns": ["COMPOUND", "OUTPUT_UNIT", "MEAS_VALUE"],
 "data": [
  ["CC[C@H](CC(=O)O)c1cccc(OCc2ccc(-c3cc(OC)ccc3F)c(C(C)(C)C)c2)c1", "nM", 680],
  ["CCC[C@H](CC(=O)O)c1cccc(OCc2ccc(-c3cc(OC)ccc3F)c(C(C)(C)C)c2)c1", "nM", 690],
  ["COc1ccc(F)c(-c2ccc(COc3cccc([C@@H](CC(=O)O)C4CCCC4)c3)cc2C(C)(C)C)c1", "nM", 1310],
  ["COc1ccc(F)c(-c2ccc(COc3cccc([C@@H](CC(=O)O)C4CC4)c3)cc2)c1", "nM", 480]
]}

I: COc1ccc(F)c(-c2ccc(COc3cccc([C@@H](CC(=O)O)C(F)(F)F)c3)cc2C(C)(C)C)c1
II: COc1ccc(F)c(-c2ccc(COc3cccc([C@@H](CC(=O)O)C4CCC4)c3)cc2C(C)(C)C)c1
III: COc1ccc(F)c(-c2ccc(COc3cccc([C@H](CC(=O)O)C4CC4)c3)cc2C2=CCCC2(C)C)c1
IV: CC#CC(CC(=O)O)c1ccc(OCc2ccc(-c3ccccc3)cc2)cc1 (racemic)
Q) Rank the 4 compounds: largest EC50 first, smallest last. In your reply, arrange the labels in the requested order.
A) IV, I, III, II
(IV: 7700 nM, I: 2100 nM, III: 1100 nM, II: 420 nM)

====

TEST_SYSTEM: Free fatty acid receptor 1 (Homo sapiens)
EXPERIMENT_DESCRIPTION: Agonist activity at GPR40 expressed in CHO cells after 20 seconds by aequorin bioluminescence assay in presence of 100 % human serum
Type: functional, cell-based
pEC50: −log10 of the molar value.
PARAMETER_MEASURED: pEC50

{"columns": ["ENTRY_SMILES", "pEC50"],
 "data": [
  ["COc1ccc(F)c(-c2ccc(COc3cccc([C@@H](CC(=O)O)C4CC4)c3)cc2)c1", 4.42]
]}

A: COc1ccc(F)c(-c2ccc(COc3cccc([C@H](CC(=O)O)C4CC4)c3)cc2C2=CCCC2(C)C)c1
B: COc1ccc(F)c(-c2ccc(COc3cccc([C@@H](CC(=O)O)C4CC4)c3)cc2C2=CCCC2(C)C)c1
C: COc1ccc(F)c(-c2ccc(COc3cccc([C@@H](CC(=O)O)C4CC4)c3)cc2C(C)(C)C)c1
Q) Rank the 3 compounds: largest pEC50 first, smallest last. In your reply, arrange the labels in the requested order.
A) B, C, A

====

TEST_SYSTEM: Free fatty acid receptor 1 (Homo sapiens)
EXPERIMENT_DESCRIPTION: Agonist activity at GPR40 expressed in CHO cells after 20 seconds by aequorin bioluminescence assay in presence of 0.1 % human serum
Assay type: functional, cell-based
pEC50: −log10 of the molar value.
PARAMETER_MEASURED: pEC50

{"columns": ["COMPOUND", "TEST_SYSTEM", "pEC50"],
 "data": [
  ["COc1ccc(F)c(-c2ccc(COc3cccc([C@@H](CC(=O)O)C4CC4)c3)cc2C(C)(C)C)c1", "Free fatty acid receptor 1 (Homo sapiens)", 6.43]
]}

A: COc1ccc(F)c(-c2ccc(COc3cccc(CCC(=O)O)c3)cc2)c1
B: CC#CC(CC(=O)O)c1ccc(OCc2ccc(-c3cccc(OC)c3)cc2)cc1 (racemic)
Q) // which entry has the larger pEC50 value, A or B ? State the label of the item chosen.
A) A
(A: 5.92, B: 5.64)

A: COc1ccc(F)c(-c2ccc(COc3cccc([C@H](C)CC(=O)O)c3)cc2C(C)(C)C)c1
B: COc1ccc(F)c(-c2ccc(COc3cccc([C@@H](CC(=O)O)C(C)C)c3)cc2C(C)(C)C)c1
Q) // which entry has the larger pEC50 value, A or B ? State the label of the item chosen.
A) A
(A: 6.11, B: 5.66)

P: COc1ccc(F)c(-c2ccc(COc3ccc(CCC(=O)O)cc3)cc2)c1
Q: COc1ccc(F)c(-c2ccc(COc3cccc([C@@H](CC(=O)O)c4ccccc4)c3)cc2C(C)(C)C)c1
Q) // which entry has the larger pEC50 value, P or Q ? State the label of the item chosen.
A) Q
(Q: 5.92, P: 5.72)
